- System: Sudhl5
- method notes: cells
- conditions used: Homo sapiens, SU-DHL-5, 6 h, read-out: AZD5991 6h EC50
parameter: pEC50
The value called pEC50 is obtained by taking minus log10 of the concentration in mol/L.

Query (molecule): Cc1c2c(nn1C)CSCc1cc(n(C)n1)CSc1cc(c3ccccc3c1)OCCCc1c(C(=O)O)n(C)c3c-2c(Cl)ccc13 (atropisomer, axis not shown; (Ra)) [(Ra)-7] ; field requested: pEC50
7.72

---

- Test system: Sudhl2
- method notes: cells
- conditions used: Homo sapiens, SU-DHL-2, 6 h, read-out: AZD5991 6h EC50
parameter: pEC50
The value called pEC50 is obtained by taking minus log10 of the concentration in mol/L.

Query (compound): Cc1c2c(nn1C)CSCc1cc(n(C)n1)CSc1cc(c3ccccc3c1)OCCCc1c(C(=O)O)n(C)c3c-2c(Cl)ccc13 (atropisomer, axis not shown; (Ra)) [(Ra)-7] ; field requested: pEC50
6.56

---

- Test system: SBC5
- method notes: cells
- conditions used: Homo sapiens, SBC-5, 6 h, read-out: AZD5991 6h EC50
parameter: EC50
# output: number + unit

Query (molecule): Cc1c2c(nn1C)CSCc1cc(n(C)n1)CSc1cc(c3ccccc3c1)OCCCc1c(C(=O)O)n(C)c3c-2c(Cl)ccc13 (atropisomer, axis not shown; (Ra)) [(Ra)-7] ; field requested: EC50
1.12 µM

---

- System: NB4
- method notes: Caspase-3/7 activation assay
- Type: cell-based
- conditions used: Homo sapiens, NB-4, 6 h, read-out: AZD5991 6h EC50; NB4 (AML); caspase 3/7 activation
parameter: pEC50
The value called pEC50 is obtained by taking minus log10 of the concentration in mol/L.

# get_value(readout= pEC50, system= NB4) for Cc1c2c(nn1C)CSCc1cc(n(C)n1)CSc1cc(c3ccccc3c1)OCCCc1c(C(=O)O)n(C)c3c-2c(Cl)ccc13 (atropisomer, axis not shown; (Ra)) [(Ra)-7]
6.46

---

- target: Bcl-xL (Homo sapiens, UniProt Q07817)
- Sequence (Q07817 1-209): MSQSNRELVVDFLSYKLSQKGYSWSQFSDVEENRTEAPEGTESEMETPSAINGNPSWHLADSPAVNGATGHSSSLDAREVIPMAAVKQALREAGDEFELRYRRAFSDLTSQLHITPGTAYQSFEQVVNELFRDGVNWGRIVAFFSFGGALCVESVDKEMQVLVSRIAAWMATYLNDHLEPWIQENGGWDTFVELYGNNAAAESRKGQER
parameter: pKi
The value called pKi is obtained by taking minus log10 of the concentration in mol/L.

# get_value(readout= pKi, system= Bcl-xL (Homo sapiens, UniProt Q07817)) for Cc1c2c(nn1C)CSCc1cc(n(C)n1)CSc1cc(c3ccccc3c1)OCCCc1c(C(=O)O)n(C)c3c-2c(Cl)ccc13 (atropisomer, axis not shown; (Ra)) [(Ra)-7]
4.74

---

- Test system: OCIAML3
- method notes: Caspase-3/7 activation assay
- Format: cell-based
- conditions used: Homo sapiens, OCI-AML-3, 6 h, read-out: AZD5991 6h EC50; OCIAML3 (AML); caspase 3/7 activation
parameter: EC50
# output: number + unit

Query (compound): Cc1c2c(nn1C)CSCc1cc(n(C)n1)CSc1cc(c3ccccc3c1)OCCCc1c(C(=O)O)n(C)c3c-2c(Cl)ccc13 (atropisomer, axis not shown; (Ra)) [(Ra)-7] ; field requested: EC50
782 nM

---

- target: UniProt:Q92843
- Sequence (Q92843 1-171): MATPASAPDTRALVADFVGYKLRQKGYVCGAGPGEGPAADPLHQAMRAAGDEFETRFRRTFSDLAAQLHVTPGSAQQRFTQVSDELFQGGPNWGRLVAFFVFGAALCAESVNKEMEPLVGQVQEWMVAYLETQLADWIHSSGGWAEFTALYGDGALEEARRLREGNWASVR
parameter: Ki (µM)
Answer in µM, number only, no unit symbol.

Query (compound): Cc1c2c(nn1C)CSCc1cc(n(C)n1)CSc1cc(c3ccccc3c1)OCCCc1c(C(=O)O)n(C)c3c-2c(Cl)ccc13 (atropisomer, axis not shown; (Ra)) [(Ra)-7] ; field requested: Ki
25

---

- System: H1703
- method notes: cells
- conditions used: Homo sapiens, NCI-H1703, 6 h, read-out: AZD5991 6h EC50
parameter: pEC50
The value called pEC50 is obtained by taking minus log10 of the concentration in mol/L.

Query (compound): Cc1c2c(nn1C)CSCc1cc(n(C)n1)CSc1cc(c3ccccc3c1)OCCCc1c(C(=O)O)n(C)c3c-2c(Cl)ccc13 (atropisomer, axis not shown; (Ra)) [(Ra)-7] ; field requested: pEC50
6.10

---

- target: Mcl-1 (Homo sapiens)
- method notes: 2D protein-observed NMR titration (TROSY)
- Assay type: binding
- Set-up: The 6His-TEV-Mcl-1(162–326) construct in a pET vector was expressed in BL21-GOLD cells; 6His-TEV (N, cleaved yes); made in house; host or cells: E. coli BL21-GOLD
- conditions used: slow exchange binding, read-out: Kd, binding event 1
pKd: −log10 of the molar value.
parameter: pKd

Query (compound): Cc1nn(C)c(C)c1-c1cccc2c(CCCOc3cccc4ccccc34)c(C(=O)O)[nH]c12 [Compound 2, reference compound] ; field requested: pKd
> 5.30

---

- Test system: DOHH2
- method notes: cells
- conditions used: Homo sapiens, DOHH-2, 6 h, read-out: AZD5991 6h EC50
parameter: EC50
# output: number + unit

# get_value(readout= EC50, system= DOHH2) for Cc1c2c(nn1C)CSCc1cc(n(C)n1)CSc1cc(c3ccccc3c1)OCCCc1c(C(=O)O)n(C)c3c-2c(Cl)ccc13 (atropisomer, axis not shown; (Ra)) [(Ra)-7]
136 nM

---

- Test system: Raji
- method notes: cells
- conditions used: Homo sapiens, 6 h, read-out: AZD5991 6h EC50
parameter: pEC50
The value called pEC50 is obtained by taking minus log10 of the concentration in mol/L.

Query (molecule): Cc1c2c(nn1C)CSCc1cc(n(C)n1)CSc1cc(c3ccccc3c1)OCCCc1c(C(=O)O)n(C)c3c-2c(Cl)ccc13 (atropisomer, axis not shown; (Ra)) [(Ra)-7] ; field requested: pEC50
5.13

---

Readings of EC50 for the listed compounds
- Tested on: OCIAML5
- method notes: Caspase-3/7 activation assay
- Assay type: cell-based
- conditions used: Homo sapiens, OCI-AML-5, 6 h, read-out: 6h caspase EC50; OCIAML5, single agent

CC1(C)CCC(CN2CCN(c3ccc(C(=O)NS(=O)(=O)c4ccc(NCC5CCOCC5)c([N+](=O)[O-])c4)c(Oc4cnc5[nH]ccc5c4)c3)CC2)=C(c2ccc(Cl)cc2)C1 [venetoclax, reference compound]	73 nM

Next compound, please.
Query (compound): Cc1c2c(nn1C)CSCc1cc(n(C)n1)CSc1cc(c3ccccc3c1)OCCCc1c(C(=O)O)n(C)c3c-2c(Cl)ccc13 (atropisomer, axis not shown; (Ra)) [(Ra)-7] ; field requested: EC50
> 333 nM

---

- Test system: OCIAML2
- method notes: cells
- conditions used: Homo sapiens, OCI-AML2, 6 h, read-out: AZD5991 6h EC50
parameter: EC50 (nM)
Answer in nM, number only, no unit symbol.

Query (compound): Cc1c2c(nn1C)CSCc1cc(n(C)n1)CSc1cc(c3ccccc3c1)OCCCc1c(C(=O)O)n(C)c3c-2c(Cl)ccc13 (atropisomer, axis not shown; (Ra)) [(Ra)-7] ; field requested: EC50
472

---

- target: Bcl-2 (Homo sapiens, UniProt P10415)
- Sequence (P10415 1-212): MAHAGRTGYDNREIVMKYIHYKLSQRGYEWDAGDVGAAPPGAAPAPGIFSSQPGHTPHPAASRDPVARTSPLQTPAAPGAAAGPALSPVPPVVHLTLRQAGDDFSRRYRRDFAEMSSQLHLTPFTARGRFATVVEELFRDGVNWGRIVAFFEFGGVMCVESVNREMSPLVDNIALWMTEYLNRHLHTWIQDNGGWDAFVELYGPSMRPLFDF
parameter: pKi
The value called pKi is obtained by taking minus log10 of the concentration in mol/L.

# get_value(readout= pKi, system= Bcl-2 (Homo sapiens, UniProt P10415)) for Cc1c2c(nn1C)CSCc1cc(n(C)n1)CSc1cc(c3ccccc3c1)OCCCc1c(C(=O)O)n(C)c3c-2c(Cl)ccc13 (atropisomer, axis not shown; (Ra)) [(Ra)-7]
5.17

---

- System: SNU16
- method notes: cells
- conditions used: Homo sapiens, SNU-16, 6 h, read-out: AZD5991 6h EC50
parameter: pEC50
The value called pEC50 is obtained by taking minus log10 of the concentration in mol/L.

# get_value(readout= pEC50, system= SNU16) for Cc1c2c(nn1C)CSCc1cc(n(C)n1)CSc1cc(c3ccccc3c1)OCCCc1c(C(=O)O)n(C)c3c-2c(Cl)ccc13 (atropisomer, axis not shown; (Ra)) [(Ra)-7]
6.74

---

- Tested on: JEKO1
- method notes: cells
- conditions used: Homo sapiens, JeKo-1, 6 h, read-out: AZD5991 6h EC50
parameter: EC50 (nM)
Answer in nM, number only, no unit symbol.

Query (molecule): Cc1c2c(nn1C)CSCc1cc(n(C)n1)CSc1cc(c3ccccc3c1)OCCCc1c(C(=O)O)n(C)c3c-2c(Cl)ccc13 (atropisomer, axis not shown; (Ra)) [(Ra)-7] ; field requested: EC50
512

---

- target: Mcl-1 (Homo sapiens, UniProt Q07820)
- Sequence (Q07820 162-326): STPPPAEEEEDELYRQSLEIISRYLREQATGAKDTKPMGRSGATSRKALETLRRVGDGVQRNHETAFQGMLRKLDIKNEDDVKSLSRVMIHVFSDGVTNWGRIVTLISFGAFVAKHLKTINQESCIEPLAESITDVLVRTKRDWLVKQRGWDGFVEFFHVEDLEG
- method notes: 2D protein-observed NMR titration (TROSY)
- Format: binding
- Set-up: The 6His-TEV-Mcl-1(162–326) construct in a pET vector was expressed in BL21-GOLD cells; 6His-TEV (N, cleaved yes); made in house; host or cells: E. coli BL21-GOLD
- conditions used: fast exchange shifts, second weaker binding event, read-out: Kd, binding event 2
parameter: Kd

Query (molecule): Cc1nn(C)c(C)c1-c1cccc2c(CCCOc3cccc4ccccc34)c(C(=O)O)[nH]c12 [Compound 2, reference compound] ; field requested: Kd
141 µM
